Experiment: self-splicing fitness, log relative to wild type (ln ratio); higher = more splicing; Tetrahymena group I intron in knt gene, E. coli kanamycin selection, DiMSum; sequences stand for … in CUCUCU…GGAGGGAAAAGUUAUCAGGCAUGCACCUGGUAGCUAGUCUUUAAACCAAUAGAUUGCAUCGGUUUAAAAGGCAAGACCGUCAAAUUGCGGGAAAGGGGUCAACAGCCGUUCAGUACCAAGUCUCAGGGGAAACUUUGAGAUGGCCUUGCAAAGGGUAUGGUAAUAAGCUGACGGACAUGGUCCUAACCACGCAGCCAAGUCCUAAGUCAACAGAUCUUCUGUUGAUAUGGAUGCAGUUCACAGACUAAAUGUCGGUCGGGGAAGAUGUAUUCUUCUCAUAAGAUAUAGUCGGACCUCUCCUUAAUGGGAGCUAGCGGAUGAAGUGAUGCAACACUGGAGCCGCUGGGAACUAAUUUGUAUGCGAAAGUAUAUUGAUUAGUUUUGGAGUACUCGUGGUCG;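 also: selection with 25 µg/mL kanamycin versus none on LB agar overnight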
Details: 30 °C
// label = True if self-splicing fitness (ln) is not less than -3, otherwise False

{"columns": ["chainSequence", "qualitativeLabel"],
 "data": [
  ["ACACAGCAAUAUUACGCAUC", "False"],
  ["GACAAGCAAUAUUACGAGUA", "True"],
  ["AGCUAGCAAUAUUACGAGGC", "False"],
  ["AUCAAGCAAUAUUACGGAUA", "True"],
  ["CUUUAGCAAUAUUACGAGCG", "True"],
  ["AAGCAGCAAUAUUACGGUCC", "True"],
  ["UGAUAGCAAUAUUACGGUCC", "True"],
  ["GCAUAGCAAUAUUACGACUU", "True"],
  ["AAGUAGCAAUAUUACGCUUU", "False"],
  ["CGGGAGCAAUAUUACGUCCG", "True"],
  ["AAGAAGCAAUAUUACGCGUG", "True"],
  ["AACAAGCAAUAUUACGACCC", "True"],
  ["GAACAGCAAUAUUACGAUCA", "True"],
  ["UUGUAGCAAUAUUACGACGA", "True"],
  ["AGUUAGCAAUAUUACGUUUC", "False"],
  ["GUACAGCAAUAUUACGCAUC", "False"],
  ["UAGAAGCAAUAUUACGCACG", "True"],
  ["CACGAGCAAUAUUACGUAGA", "True"],
  ["CGUUAGCAAUAUUACGAUAA", "True"],
  ["UAACAGCAAUAUUACGUACA", "True"],
  ["UGGAAGCAAUAUUACGACUC", "True"],
  ["GAACAGCAAUAUUACGUGAA", "True"],
  ["UCCGAGCAAUAUUACGGGCG", "False"],
  ["CCAAAGCAAUAUUACGCCAC", "False"],
  ["ACCGAGCAAUAUUACGUAGA", "False"],
  ["GAACAGCAAUAUUACGCACG", "True"],
  ["CCAAAGCAAUAUUACGCGUU", "False"],
  ["CGACAGCAAUAUUACGAUGU", "True"],
  ["CGUCAGCAAUAUUACGUUCC", "True"],
  ["GUACAGCAAUAUUACGGUCA", "True"],
  ["CAUAAGCAAUAUUACGGUCU", "True"],
  ["AUAGAGCAAUAUUACGCGAA", "True"],
  ["GUACAGCAAUAUUACGGGGG", "False"],
  ["GACGAGCAAUAUUACGCGAG", "True"],
  ["CUGCAGCAAUAUUACGAAGC", "True"],
  ["UCCCAGCAAUAUUACGUCAU", "False"],
  ["ACUUAGCAAUAUUACGAACC", "True"],
  ["AUCGAGCAAUAUUACGGUAU", "True"],
  ["UGGAAGCAAUAUUACGAACC", "True"],
  ["AGUCAGCAAUAUUACGCUUU", "True"],
  ["GGGUAGCAAUAUUACGCGGG", "True"],
  ["UACCAGCAAUAUUACGCCUU", "True"],
  ["CCCCAGCAAUAUUACGGGGA", "False"],
  ["UACAAGCAAUAUUACGUUAC", "False"],
  ["UGGGAGCAAUAUUACGAACA", "True"],
  ["CAUGAGCAAUAUUACGAGAG", "False"],
  ["UACUAGCAAUAUUACGGGGG", "True"],
  ["CCAGAGCAAUAUUACGGUAU", "False"],
  ["ACCGAGCAAUAUUACGGCAA", "True"],
  ["UAUUAGCAAUAUUACGCAAG", "True"],
  ["ACCCAGCAAUAUUACGAGUC", "False"],
  ["GCUCAGCAAUAUUACGUUUU", "True"],
  ["AGCAAGCAAUAUUACGGCGG", "True"],
  ["UAAUAGCAAUAUUACGUCAU", "False"],
  ["AGGAAGCAAUAUUACGGUUC", "True"],
  ["CGAAAGCAAUAUUACGACCA", "True"],
  ["AUAUAGCAAUAUUACGGAGU", "True"],
  ["GAAAAGCAAUAUUACGAGCU", "True"],
  ["CCUCAGCAAUAUUACGUUUU", "False"],
  ["GCCCAGCAAUAUUACGAUAG", "True"],
  ["CAGAAGCAAUAUUACGUACG", "True"],
  ["AGAGAGCAAUAUUACGAUGU", "True"],
  ["GACGAGCAAUAUUACGAGGU", "False"],
  ["AGCAAGCAAUAUUACGUGGG", "False"],
  ["UAAGAGCAAUAUUACGAAGU", "False"]
]}
